Reported melting point values for a set of compounds
observable: melting point

COc1cc2c(cc1Oc1ncccn1)-c1c(-c3cccs3)cc(C(=O)N(C)C(C)(C)C)n1CC2 [Example 76]    164 to 165 °C
COc1cc2c(cc1OC(C)C)-c1c(-c3cccs3)cc(C(=O)N(C)C(C)(C)CO)n1CC2 [Example 30]    150 to 152 °C
COc1cccc(Oc2cc3c(cc2OC)CCn2c(C(=O)N(C)C(C)(C)C)cc(-c4cccs4)c2-3)c1 [Example 74]    176 to 177 °C
COc1cc2c(cc1OC(C)C)-c1c(-c3cccs3)cc(C(=O)N3CCCN(C(C)=O)CCC3)n1CC2 [Example 16]    153 to 155 °C

* * *

target: human FSH receptor (Homo sapiens, UniProt P23945); experiment: hFSHRago (CHO luc): agonistic activity at the human FSH receptor expressed in CHO cells, CRE-luciferase reporter; details: CHO cells stably transfected with human FSH receptor and CRE/luciferase reporter; 4 hours of incubation
Sequence (P23945 18-695): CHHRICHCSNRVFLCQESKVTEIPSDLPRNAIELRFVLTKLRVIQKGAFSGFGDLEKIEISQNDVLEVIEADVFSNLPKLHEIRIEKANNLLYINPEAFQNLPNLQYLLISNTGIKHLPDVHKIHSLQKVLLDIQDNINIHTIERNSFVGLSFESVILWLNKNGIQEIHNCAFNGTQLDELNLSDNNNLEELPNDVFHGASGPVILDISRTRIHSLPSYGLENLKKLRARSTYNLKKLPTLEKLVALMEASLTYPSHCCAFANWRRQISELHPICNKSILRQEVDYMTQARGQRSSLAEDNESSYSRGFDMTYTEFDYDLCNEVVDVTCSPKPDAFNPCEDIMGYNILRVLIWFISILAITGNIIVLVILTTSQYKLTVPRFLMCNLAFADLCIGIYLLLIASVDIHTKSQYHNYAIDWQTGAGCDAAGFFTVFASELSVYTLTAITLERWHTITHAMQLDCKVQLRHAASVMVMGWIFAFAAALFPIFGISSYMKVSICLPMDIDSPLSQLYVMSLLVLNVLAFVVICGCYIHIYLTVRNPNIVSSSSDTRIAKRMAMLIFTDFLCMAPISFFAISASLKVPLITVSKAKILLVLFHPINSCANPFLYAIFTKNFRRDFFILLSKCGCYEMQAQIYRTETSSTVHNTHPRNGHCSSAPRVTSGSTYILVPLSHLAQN
Reported EC50 values for a set of molecules
observable: EC50 (nM)

CN(C(=O)c1cc(-c2cccs2)c2n1CCc1ccc(N3CCCC3=O)cc1-2)C(C)(C)C [Example 88]    310
COc1cc2c(cc1OCCOC1CCCCO1)-c1c(-c3cccs3)cc(C(=O)N(C)C(C)(C)C)n1CC2 (stereo not shown) [Example 65c]    102
COC(=O)NCCOc1cc2c(cc1OC)CCn1c(C(=O)N(C)C(C)(C)C)cc(-c3cccs3)c1-2 [Example 66]    31.3
COc1cc2c(cc1OC(C)C)-c1c(-c3cccs3)cc(C(=O)N3CC4CC(C3)C3CCCC(=O)N3C4)n1CC2 (stereo not shown) [Example 19]    29.4
COc1cc2c(cc1OC(C)C)-c1c(C#N)cc(C(=O)N(C)C(C)(C)C)n1CC2 [Example 37d]    67.1
COc1cc2c(cc1OCCOS(C)(=O)=O)-c1c(-c3cccs3)cc(C(=O)N(C)C(C)(C)C)n1CC2 [Example 65e]    15
COc1cc2c(cc1OC(C)C)-c1c(-c3cccs3)c(CO)c(C(=O)N(C)C(C)(C)C)n1CC2 [Example 40]    8.8

* * *

molecular target: human FSH receptor (Homo sapiens); assay: hFSHRago (CHO luc): agonistic activity at the human FSH receptor expressed in CHO cells, CRE-luciferase reporter; settings: CHO cells stably transfected with human FSH receptor and CRE/luciferase reporter; 4 hours of incubation
pEC50: −log10 of the molar value.
observable: pEC50

CCN(C(=O)c1cc(-c2cccs2)c2n1CCc1c-2cc(OC)c(OC)c1F)C(C)C    6.03
COc1cc2c(cc1C=C(C)C)-c1c(-c3cccs3)cc(C(=O)N(C)C(C)(C)C)n1CC2 [Example 58b]    9.15
COc1cc2c(cc1OCCO)-c1c(-c3cccs3)cc(C(=O)N(C)C(C)(C)C)n1CC2 [Example 65d]    8.89
COc1cc2ccn3c(C(=O)N4CCCN(C(=O)C5CCC5)CC4)cc(-c4cccs4)c3c2cc1OC [Example 111b]    8.31
